Ref: PubChem BioAssay AID248

A collection of compounds and their measured T/C
tested on: L1210 leukemia ip in BDF1 mice, survival T/C; experiment: NCI In Vivo Anticancer Drug Screen. Data for tumor model L1210 Leukemia (intraperitoneal) in B6D2F1 (BDF1) mice; conditions: endpoint: mean survival time; dose: 400.0 mg/kg/injection; schedule: Q04DX002 (ip); vehicle: saline with Tween-80; higher = longer survival
Inconclusive results and toxic doses are left out.

Use these answered entries as a reference point.
{"compound": "C=C1C(C(=O)OCC)C1C(=O)OCC (configuration not stated)", "measured_on": "L1210 leukemia ip in BDF1 mice, survival T/C", "T/C": "98 % of control"}
{"compound": "NC(C(=O)O)C(N)(CC(=O)O)C(=O)O (configuration not stated)", "measured_on": "L1210 leukemia ip in BDF1 mice, survival T/C", "T/C": "105 % of control"}
{"compound": "OCC1OC(OC2C(CO)OCC(O)C2O)C(O)C(O)C1O (configuration not stated)", "measured_on": "L1210 leukemia ip in BDF1 mice, survival T/C", "T/C": "88 % of control"}
{"compound": "CC1(C)CC(=O)CC(=C2C(=O)NC(=O)NC2=O)C1", "measured_on": "L1210 leukemia ip in BDF1 mice, survival T/C", "T/C": "100 % of control"}
{"compound": "C#CC1(NC(=O)NC(C)(C)C)CCCCC1", "measured_on": "L1210 leukemia ip in BDF1 mice, survival T/C", "T/C": "97 % of control"}
{"compound": "CCSCC(C)O (configuration not stated)", "measured_on": "L1210 leukemia ip in BDF1 mice, survival T/C", "T/C": "94 % of control"}

(Q) Recorded T/C for "C=CCNC(=S)OCC" , please?
(A) 103 % of control
